Measurement notes: Thermal stability of cysteine-NEM conjugates by DSC
Type: physicochemical
Test conditions: second identical scan
Record form. Attribute: Second Scan Tm. Fill in for each entry.
Give bare numbers, in °C.

Previously resolved entries follow.
| Molecule | Measurement name | Value unit | Measured number |
| --- | --- | --- | --- |
| Y72C: cysteine variant of P54AR4-83v2; NEM and VC-MMAF conjugates (conjugate, left off: small tags and cut ends, cysteine variant of P54AR4-83v2; NEM and VC-MMAF conjugates) LPAPKNLVVSEVTEDSARLSWDDPWAFYESFLIQYQESEKVGEAIVLTVPGSERSYDLTGLKPGTEYTVSICGVHNVYKDTNMRGLPLSAIFTT | Second Scan Tm | °C | 69 |
| S38C: cysteine variant of P54AR4-83v2 (SEQ ID NOS: 198 and 236); NEM and VC-MMAF conjugates (conjugate, NEM or vcMMAF conjugate; EGFR binding FN3 domain, NEM and VC-MMAF conjugates) MLPAPKNLVVSEVTEDSARLSWDDPWAFYESFLIQYQECEKVGEAIVLTVPGSERSYDLTGLKPGTEYTVSIYGVHNVYKDTNMRGLPLSAIFTT | Second Scan Tm | °C | 65 |
| V9C (conjugate, left off: small tags and cut ends) LPAPKNLVCSEVTEDSARLSWDDPWAFYESFLIQYQESEKVGEAIVLTVPGSERSYDLTGLKPGTEYTVSIYGVHNVYKDTNMRGLPLSAIFTT | Second Scan Tm | °C | 46 |

From here, focus on the item given below.
Req: Could you share which Second Scan Tm value was measured for E39C (conjugate, left off: small tags and cut ends) LPAPKNLVVSEVTEDSARLSWDDPWAFYESFLIQYQESCKVGEAIVLTVPGSERSYDLTGLKPGTEYTVSIYGVHNVYKDTNMRGLPLSAIFTT ?
Resp: 69

Recorded values, source patent US11702475B2.
